For each entry below, report its bioavailability value.
Assay: Oral bioavailability in Sprague-Dawley rat at 3 mg/kg administered as single cassette dose by LC-MS/MS analysis
Format: ADME, organism-based
Details: Sprague-Dawley, in vivo
One number for each entry, in %.

Examples with answers:
CN1CC2(CNC(=O)c3c2[nH]c2c3CCc3cnc(-c4cccc(F)c4)c(F)c3-2)C1 = 81
CN1CC2(CNC(=O)c3c2[nH]c2c3CCc3cnc(-c4cccc(F)c4)cc3-2)C1 = 27
COc1ccc(-c2ncc3c(c2F)-c2[nH]c4c(c2CC3)C(=O)NCC42CN(C)C2)cn1 = 77

Then this compound:
query: Entry COc1ccc(-c2ncc3c(c2F)-c2[nH]c4c(c2CC3)C(=O)NCC42CN(C)C2)cc1F needs its bioavailability filled in; supply it.
result: 60

###

Molecular target: MAP kinase-activated protein kinase 2 (Homo sapiens)
Sequence (P49137 whole entry): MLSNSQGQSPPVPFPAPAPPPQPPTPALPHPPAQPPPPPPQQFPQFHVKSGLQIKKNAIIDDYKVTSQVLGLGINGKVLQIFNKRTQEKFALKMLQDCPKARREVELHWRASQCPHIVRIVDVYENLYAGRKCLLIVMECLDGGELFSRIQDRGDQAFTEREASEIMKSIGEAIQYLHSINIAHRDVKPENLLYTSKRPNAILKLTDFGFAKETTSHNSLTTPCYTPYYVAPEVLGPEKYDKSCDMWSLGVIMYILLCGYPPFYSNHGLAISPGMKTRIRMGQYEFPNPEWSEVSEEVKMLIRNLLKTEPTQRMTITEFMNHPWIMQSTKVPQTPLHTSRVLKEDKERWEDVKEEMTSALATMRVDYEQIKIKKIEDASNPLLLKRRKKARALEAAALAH
Assay: Inhibition of MK2 in anisomycin-stimulated human THP1 cells assessed as reduction in hsp27 phosphorylation at Ser78 by FACS analysis
Assay Metric: IC50 (nM)
Answers are plain numbers, in nM.

query: Entry COc1ccc(-c2ncc3c(c2F)-c2[nH]c4c(c2CC3)C(=O)NCC42CN(C)C2)cn1 needs its IC50 filled in; supply it.
result: 480

###

For each entry below, report its IC50 value.
Test system: PBMC
Assay: cells
Details: Homo sapiens
Give bare numbers, in nM.

Examples with answers:
CN1CC2(CNC(=O)c3c2[nH]c2c3CCc3cnc(-c4cccc(F)c4)c(F)c3-2)C1 = 550
COc1ccc(-c2ncc3c(c2F)-c2[nH]c4c(c2CC3)C(=O)NCC42CN(C)C2)cc1F = 240

query: Entry COc1ccc(-c2ncc3c(c2F)-c2[nH]c4c(c2CC3)C(=O)NCC42CN(C)C2)cn1 needs its IC50 filled in; supply it.
result: 490

###

Assay: Clearance in Sprague-Dawley rat at 1 mg/kg, iv administered as single cassette dose measured over 8 hrs by LC-MS/MS analysis
Type: ADME, organism-based
Conditions: in vivo
Assay Metric: clearance (mL/min/kg)
One number for each entry, in mL/min/kg.

query: Entry CN1CC2(CNC(=O)c3c4c(n(C)c32)-c2cc(-c3cccc(Cl)c3)ncc2CC4)C1 needs its clearance filled in; supply it.
result: 10

###

Assay: Lipophilicity, log D of compound at pH 7.4
Conditions: buffer
Binary label based on logD with cut-off 3: below gives 1.0, not below gives 0.0.

COc1ccc(-c2ncc3c(c2F)-c2[nH]c4c(c2CC3)C(=O)NCC42CN(C)C2)cn1 = 1.0
CN1CC2(CNC(=O)c3c2[nH]c2c3CCc3cnc(-c4cccc(F)c4)cc3-2)C1 = 0.0
CN1CC2(CNC(=O)c3c4c(n(C)c32)-c2cc(-c3cccc(Cl)c3)ncc2CC4)C1 = 0.0
CN1CC2(CNC(=O)c3c2[nH]c2c3CCc3cnc(-c4cccc(F)c4)c(F)c3-2)C1 = 0.0

Could you now consider this next compound?
query: logD under 3? Item: COc1ccc(-c2ncc3c(c2F)-c2[nH]c4c(c2CC3)C(=O)NCC42CN(C)C2)cc1F
result: 0.0

###

Target: MAP kinase-activated protein kinase 2 (Homo sapiens)
Test: Inhibition of human MK2 using hsp27 peptide biotinyl-AYSRALSRQLSSGVSEIRCOOH as substrate after 45 mins by TR-FRET assay
Assay Metric: IC50

query: Entry COc1ccc(-c2ncc3c(c2F)-c2[nH]c4c(c2CC3)C(=O)NCC42CN(C)C2)cn1 needs its IC50 filled in; supply it.
result: < 3 nM
